Biological target: full-length ATR (Homo sapiens (Human))
Assay: ATR Inhibition Assay (radioactive-phosphate incorporation)
Type: biochemical
Settings: ATR Inhibition Ki(app); 10 μM ATP, 800 μM target peptide, 5 nM full-length ATR, 25° C.
pKi: −log10 of the molar value.
In this section we review reported pKi values for a set of compounds.
OBSERVED PROPERTY: pKi

COMPOUND: CNCc1ccc(-c2cc(-c3nc(-c4ccc(=O)n(Cc5nccn5C)c4)cnc3N)on2)cc1
READING: ≥ 8.30

COMPOUND: CCC(CC)n1cc(-c2cnc(N)c(-c3cc(-c4ccc(F)c(C(C)N)c4)no3)n2)ccc1=O (centres unmarked)
READING: ≥ 8.30

COMPOUND: CNCc1ccc(-c2nnc(-c3nc(-c4ccc(=O)n(CC#N)c4)cnc3N)o2)cc1
READING: 7.30 to 8.30

COMPOUND: CNCc1ccc(-c2cc(-c3nc(-c4ccc(=O)n(CCC5CC5)c4)cnc3N)on2)cc1
READING: ≥ 8.30

COMPOUND: CCC(CC)n1cc(-c2cnc(N)c(-c3cc(-c4cccc(C(C)N)c4F)no3)n2)ccc1=O (centres unmarked)
READING: ≥ 8.30

COMPOUND: CNCc1ccc(-c2nnc(-c3nc(-c4ccc(=O)n(C(C)C)c4C)cnc3N)o2)c(C)c1
READING: 7.00 to 7.30

COMPOUND: CNCc1ccc(-c2nnc(-c3nc(-c4ccc(=O)n(C(C)C)c4)cnc3N)o2)c(OC)c1
READING: ≥ 8.30

COMPOUND: CC(N)c1cccc(-c2cc(-c3nc(-c4ccc(=O)n(C(C)C)c4)cnc3N)on2)c1 (centres unmarked)
READING: ≥ 8.30

###

In this section we review reported Ki values for a set of compounds.
Molecular target: full-length ATR (Homo sapiens (Human), UniProt Q13535)
Sequence (Q13535 whole entry): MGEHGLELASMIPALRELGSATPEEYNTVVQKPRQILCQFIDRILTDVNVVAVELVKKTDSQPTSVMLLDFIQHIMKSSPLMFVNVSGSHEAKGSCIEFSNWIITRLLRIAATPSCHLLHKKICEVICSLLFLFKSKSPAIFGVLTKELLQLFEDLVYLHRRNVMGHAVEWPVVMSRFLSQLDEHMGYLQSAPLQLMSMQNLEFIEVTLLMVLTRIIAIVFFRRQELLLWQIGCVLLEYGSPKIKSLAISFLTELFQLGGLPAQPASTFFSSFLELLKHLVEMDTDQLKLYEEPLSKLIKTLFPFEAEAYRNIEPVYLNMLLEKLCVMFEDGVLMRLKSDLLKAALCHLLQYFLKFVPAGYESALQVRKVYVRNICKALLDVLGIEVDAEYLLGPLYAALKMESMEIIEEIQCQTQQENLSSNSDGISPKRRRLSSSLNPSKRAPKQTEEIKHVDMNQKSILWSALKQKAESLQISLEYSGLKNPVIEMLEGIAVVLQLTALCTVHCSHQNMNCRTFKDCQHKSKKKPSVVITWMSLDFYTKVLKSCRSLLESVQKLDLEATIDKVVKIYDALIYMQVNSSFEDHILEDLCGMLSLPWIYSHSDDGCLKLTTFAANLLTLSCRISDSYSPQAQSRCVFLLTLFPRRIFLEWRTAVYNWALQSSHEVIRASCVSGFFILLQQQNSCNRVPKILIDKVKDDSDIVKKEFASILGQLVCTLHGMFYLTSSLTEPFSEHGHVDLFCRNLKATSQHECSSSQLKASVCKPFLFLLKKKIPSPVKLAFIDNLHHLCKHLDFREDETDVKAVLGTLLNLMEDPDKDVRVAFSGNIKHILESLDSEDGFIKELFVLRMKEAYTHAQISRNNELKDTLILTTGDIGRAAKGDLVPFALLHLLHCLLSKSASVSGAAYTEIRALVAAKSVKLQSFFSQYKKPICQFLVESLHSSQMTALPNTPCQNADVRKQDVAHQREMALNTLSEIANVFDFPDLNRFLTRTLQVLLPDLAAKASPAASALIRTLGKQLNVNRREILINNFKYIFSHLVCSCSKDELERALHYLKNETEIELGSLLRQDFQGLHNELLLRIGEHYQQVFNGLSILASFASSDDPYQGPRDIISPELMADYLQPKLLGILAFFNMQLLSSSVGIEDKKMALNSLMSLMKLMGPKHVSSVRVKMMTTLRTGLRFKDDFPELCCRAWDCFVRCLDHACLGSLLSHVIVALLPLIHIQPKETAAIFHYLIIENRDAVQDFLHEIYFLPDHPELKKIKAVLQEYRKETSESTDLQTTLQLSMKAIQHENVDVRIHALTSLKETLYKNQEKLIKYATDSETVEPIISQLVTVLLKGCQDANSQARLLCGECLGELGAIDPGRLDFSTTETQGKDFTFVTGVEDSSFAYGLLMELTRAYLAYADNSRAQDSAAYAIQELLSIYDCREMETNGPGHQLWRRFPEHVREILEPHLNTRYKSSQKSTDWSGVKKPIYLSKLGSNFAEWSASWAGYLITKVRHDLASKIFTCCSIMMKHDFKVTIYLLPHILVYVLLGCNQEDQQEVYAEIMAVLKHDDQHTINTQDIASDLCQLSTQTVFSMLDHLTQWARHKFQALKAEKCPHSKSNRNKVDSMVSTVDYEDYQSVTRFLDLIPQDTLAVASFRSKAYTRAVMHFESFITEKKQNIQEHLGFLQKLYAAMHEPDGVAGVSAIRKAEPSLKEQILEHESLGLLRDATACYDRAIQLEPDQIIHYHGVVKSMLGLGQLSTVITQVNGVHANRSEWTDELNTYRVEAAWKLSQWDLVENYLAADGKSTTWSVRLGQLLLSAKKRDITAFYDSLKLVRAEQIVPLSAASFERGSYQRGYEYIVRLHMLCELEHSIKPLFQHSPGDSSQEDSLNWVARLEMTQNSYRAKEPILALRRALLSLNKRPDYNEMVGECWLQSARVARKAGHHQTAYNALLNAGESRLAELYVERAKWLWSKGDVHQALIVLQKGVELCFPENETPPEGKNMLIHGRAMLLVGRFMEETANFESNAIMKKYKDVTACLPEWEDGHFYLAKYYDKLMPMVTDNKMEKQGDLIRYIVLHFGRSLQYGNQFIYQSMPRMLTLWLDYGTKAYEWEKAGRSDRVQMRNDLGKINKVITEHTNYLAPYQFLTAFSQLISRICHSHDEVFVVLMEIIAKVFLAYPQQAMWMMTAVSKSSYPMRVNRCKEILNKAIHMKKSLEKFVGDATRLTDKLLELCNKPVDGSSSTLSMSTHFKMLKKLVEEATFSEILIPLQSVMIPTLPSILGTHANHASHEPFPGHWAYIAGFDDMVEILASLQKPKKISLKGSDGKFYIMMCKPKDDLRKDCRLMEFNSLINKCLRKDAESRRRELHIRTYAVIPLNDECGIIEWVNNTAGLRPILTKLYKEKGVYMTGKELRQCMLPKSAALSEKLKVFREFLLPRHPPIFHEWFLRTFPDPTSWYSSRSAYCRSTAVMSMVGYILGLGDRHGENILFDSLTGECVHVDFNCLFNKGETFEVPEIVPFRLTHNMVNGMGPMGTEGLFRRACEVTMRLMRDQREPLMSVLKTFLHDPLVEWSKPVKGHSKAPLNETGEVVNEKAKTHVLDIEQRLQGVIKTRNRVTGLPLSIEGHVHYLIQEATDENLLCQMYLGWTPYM
Assay: ATR Inhibition Assay (radioactive-phosphate incorporation)
Assay type: biochemical
Details: ATR Inhibition Ki(app); 10 μM ATP, 800 μM target peptide, 5 nM full-length ATR, 25° C.

COMPOUND: CCC(Cn1cc(-c2cnc(N)c(-c3cc(-c4ccc(CNC)cc4)no3)n2)ccc1=O)OC (stereo not drawn)
Ki: ≤ 5 nM
--
COMPOUND: CC(CO)NCc1ccc(-c2cc(-c3nc(-c4ccc(=O)n(C(C)(C)C#N)c4)cnc3N)on2)cc1 (stereo not drawn)
Ki: ≤ 5 nM
--
COMPOUND: C=Cc1cc(-c2cnc(N)c(-c3cc(-c4ccc(CNC)cc4)no3)n2)cn(C(C)C)c1=O
Ki: 50 to 100 nM
--
COMPOUND: CNCc1ccc(-c2cc(-c3nc(-c4cc(Br)c(=O)n(C(C)C)c4)cnc3N)on2)cc1
Ki: 5 to 50 nM
--
COMPOUND: CNCc1ccc(-c2cc(-c3nc(-c4c[nH]c(=O)c(C5CCCCC5)c4)cnc3N)on2)cc1
Ki: ≤ 5 nM
--
COMPOUND: CNCc1ccc(-c2cc(-c3nc(-c4c[nH]c(=O)c(C(C)C)c4)cnc3N)on2)cc1
Ki: ≤ 5 nM
--
COMPOUND: CNCc1ccc(-c2cc(-c3nc(-c4ccc(=O)n(CCC#N)c4)cnc3N)on2)cc1
Ki: ≤ 5 nM
--
COMPOUND: CNCc1ccc(-c2cc(-c3nc(-c4ccc(=O)n(C(C)C)c4)cnc3N)on2)c(OC)c1
Ki: ≤ 5 nM
--
COMPOUND: CNCc1ccc(-c2cc(-c3nc(-c4ccc(=O)n(C(C)C(=O)N5CCCC5)c4)cnc3N)on2)cc1 (stereo not drawn)
Ki: ≤ 5 nM
--
COMPOUND: CNCc1ccc(-c2nnc(-c3nc(-c4ccc(=O)n(C(C)C)c4)cnc3N)o2)c(F)c1
Ki: ≤ 5 nM
--
COMPOUND: CCC(CC)n1cc(-c2cnc(N)c(-c3cc(-c4cccc(C(C)(C)N)c4)no3)n2)ccc1=O
Ki: ≤ 5 nM
--
COMPOUND: CNCc1ccc(-c2cc(-c3nc(-c4ccc(=O)n(C(C)C)c4)cnc3N)on2)c(OC(C)C)c1
Ki: ≤ 5 nM
--
COMPOUND: CCC(CC)c1cc(-c2cnc(N)c(-c3cc(-c4ccc(CNC)cc4F)no3)n2)c[nH]c1=O
Ki: ≤ 5 nM
--
COMPOUND: CCCC(CC)c1cc(-c2cnc(N)c(-c3cc(-c4ccc(CNC5CC5)cc4)no3)n2)c[nH]c1=O (stereo not drawn)
Ki: ≤ 5 nM
--
COMPOUND: CCn1cc(-c2cnc(N)c(-c3cc(-c4ccc(CNC)cc4)no3)n2)ccc1=O
Ki: ≤ 5 nM
--
COMPOUND: CNCc1ccc(-c2cc(-c3nc(-c4ccc(=O)n(C(C)C(=O)NC)c4)cnc3N)on2)cc1 (stereo not drawn)
Ki: ≤ 5 nM
--
COMPOUND: CNCc1ccc(-c2cc(-c3nc(-c4c[nH]c(=O)c(-c5ccccc5)c4)cnc3N)on2)cc1
Ki: ≤ 5 nM
--
COMPOUND: CNCc1ccc(-c2nnc(-c3nc(-c4ccc(=O)n(CC(C)C)c4)cnc3N)o2)c(OC)c1
Ki: ≤ 5 nM
--
COMPOUND: CC(N)c1cccc(-c2cc(-c3nc(-c4ccc(=O)n(C(C)C(N)=O)c4)cnc3N)on2)c1 (stereo not drawn)
Ki: ≤ 5 nM
--
COMPOUND: CC(C)n1cc(-c2cnc(N)c(-c3nnc(-c4cccc(CNC(C)(C)C)c4)o3)n2)ccc1=O
Ki: 50 to 100 nM
--
COMPOUND: CNCc1ccc(-c2cc(-c3nc(-c4ccc(=O)n(CC5(C)CC5)c4)cnc3N)on2)cc1
Ki: ≤ 5 nM
--
COMPOUND: CNCc1ccc(-c2cc(-c3nc(-c4ccc(=O)n(C(CO)CO)c4)cnc3N)on2)cc1
Ki: ≤ 5 nM
--
COMPOUND: CNCc1ccc(-c2cc(-c3nc(-c4cc(F)c(=O)n(C(C)C)c4)cnc3N)on2)cc1
Ki: 5 to 50 nM
--
COMPOUND: CNCc1ccc(-c2cc(-c3nc(-c4c[nH]c(=O)c(Cl)c4)cnc3N)on2)cc1
Ki: ≤ 5 nM
--
COMPOUND: CNCc1ccc(-c2nnc(-c3nc(-c4ccc(=O)n(C(C)C#N)c4)cnc3N)o2)c(OC)c1 (stereo not drawn)
Ki: ≤ 5 nM
--
COMPOUND: CNCc1ccc(-c2cc(-c3nc(-c4ccc(=O)n(CC5(C)COC5)c4)cnc3N)on2)cc1
Ki: ≤ 5 nM
--
COMPOUND: CC(N)c1ccc(-c2nnc(-c3nc(-c4ccc(=O)n(C(C)C)c4)cnc3N)o2)cc1 (stereo not drawn)
Ki: 5 to 50 nM
--
COMPOUND: CNCc1ccc(-c2cc(-c3nc(-c4ccc(=O)n(CCN5CCCC5=O)c4)cnc3N)on2)cc1
Ki: ≤ 5 nM
--
COMPOUND: CNCc1ccc(-c2cc(-c3nc(-c4ccc(=O)n(CC(N)=O)c4)cnc3N)on2)cc1
Ki: ≤ 5 nM
--
COMPOUND: CNCc1ccc(-c2cc(-c3nc(-c4ccc(=O)n(C5(C#N)CCCC5)c4)cnc3N)on2)cc1
Ki: ≤ 5 nM
